Test system: AsPC1
Assay: MTT cell viability assay, AsPC1
Format: cell-based, human
Conditions: AsPC1, 48 hrs
measured.attribute: IC50 (µM)
Numbers only, in µM.

query: // query IC50 value for entry CC(C)=CCCC1(C)C=Cc2c(c(C)cc3c2[nH]c2ccccc23)O1 (stereo not shown)
result: 31.8
